Quick list: TGI per entry.
Test system: CCRF-CEM leukemia
run description: NCI tumour cell line growth inhibition, 48 h

| compound | TGI |
| --- | --- |
| COc1ccc(OC)c(-c2cc(-c3ccccc3)nn2-c2ccc(S(=O)(=O)NC(C)=O)cc2)c1 | 6.55 µM |
| COc1cccc(N2C(=O)CS(=O)(=O)C2c2cccc(Oc3ccccc3)c2)c1 (centres undefined) | > 100 µM |
| CCCCN1C(=O)CC2[C@@H]3CCc4cc(OC)ccc4C3CC[C@]2(C)C1=O (some centres undefined) | > 10 µM |
| CCCCCCCCCCCCOCCOCCOCCOCCOCCOCC(=O)NC(Cc1ccccc1)C(=O)Oc1ccc([N+](=O)[O-])cc1 (centres undefined) | > 100 µM |
| Cc1cccc(NS(=O)(=O)c2ccc(N=Nc3c(O)c(C(=O)O)cc4ccccc34)cc2)n1 | > 100 µM |
| COC(=O)c1ccc2c(c1)C(NC(C)=O)CCc1cc(OC)c(OC)c(OC)c1-2 (centres undefined) | > 35.6 µM |
| Clc1ccc([O][In]([O]c2ccc(Cl)cn2)[O]c2ccc(Cl)cn2)nc1 | > 100 µM |
| COc1ccc([C@H]2CC(=O)N3CCCC3N2)cc1 (some centres undefined) | > 100 µM |
| COc1ccc(C(C2=C(C)C(=O)c3ccccc3C2=O)c2ccc(C(C)C)cc(=O)c2O)cc1 (centres undefined) | > 100 µM |
